Target: Bombyx mori EcR (VP16 fusion, CVBE switch construct) (Bombyx mori)
Sequence (P49881 86-606): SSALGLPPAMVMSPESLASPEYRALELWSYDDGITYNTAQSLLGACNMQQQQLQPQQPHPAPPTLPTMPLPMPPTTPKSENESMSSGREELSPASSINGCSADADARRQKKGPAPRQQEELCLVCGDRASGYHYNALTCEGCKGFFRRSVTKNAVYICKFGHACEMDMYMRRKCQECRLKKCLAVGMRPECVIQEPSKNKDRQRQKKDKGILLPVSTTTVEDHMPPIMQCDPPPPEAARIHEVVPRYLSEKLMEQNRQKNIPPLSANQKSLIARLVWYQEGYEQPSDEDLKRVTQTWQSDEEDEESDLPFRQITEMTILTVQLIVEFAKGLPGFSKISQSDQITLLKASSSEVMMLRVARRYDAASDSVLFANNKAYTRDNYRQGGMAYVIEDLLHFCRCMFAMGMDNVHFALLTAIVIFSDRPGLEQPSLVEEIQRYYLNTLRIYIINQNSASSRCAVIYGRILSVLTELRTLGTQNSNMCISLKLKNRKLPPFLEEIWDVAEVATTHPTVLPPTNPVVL
Sequence (P19793 whole entry partner, the tested form may be a part): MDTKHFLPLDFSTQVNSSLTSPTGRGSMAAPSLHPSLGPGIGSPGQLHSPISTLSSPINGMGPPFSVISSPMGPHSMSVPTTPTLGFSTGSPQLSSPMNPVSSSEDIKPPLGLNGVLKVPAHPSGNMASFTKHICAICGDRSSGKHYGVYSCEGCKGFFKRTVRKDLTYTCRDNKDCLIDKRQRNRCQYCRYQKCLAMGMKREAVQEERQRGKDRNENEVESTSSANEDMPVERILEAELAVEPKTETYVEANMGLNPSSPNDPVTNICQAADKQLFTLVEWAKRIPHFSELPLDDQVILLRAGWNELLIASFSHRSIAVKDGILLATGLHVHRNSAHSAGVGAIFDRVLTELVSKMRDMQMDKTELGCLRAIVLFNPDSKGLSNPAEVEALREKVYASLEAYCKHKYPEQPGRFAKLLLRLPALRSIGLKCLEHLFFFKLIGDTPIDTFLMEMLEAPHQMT
Assay: Z3 Assay (HEK-293 cells with CVBE and 6XEcRE LacZ, β-galactosidase reporter)
Settings: 33 uM ligand; ligand treated / DMSO treated cells; average of two wells
Listing of recorded Fold Induction, Z3 Assay, 33 uM by entry.
Quantity measured: Fold Induction, Z3 Assay, 33 uM

| Compound | Quantity measured | Result number |
| --- | --- | --- |
| CCc1c(OC)cccc1C(=O)NN(C(=O)c1cc(C)cc(C=NO)c1)C(C)(C)C [RG-115625] | Fold Induction, Z3 Assay, 33 uM | 1559 |
| COc1ccc(C(=O)NN(C(=O)c2ccc(F)cc2Cl)C(C)(C)C)cc1 [RG-101057] | Fold Induction, Z3 Assay, 33 uM | 930 |
| COc1cccc(C(=O)NN(C(=O)c2cccc(C)c2)C(C)(C)C)c1C [RG-100694] | Fold Induction, Z3 Assay, 33 uM | 1288 |
| CCc1c(C(=O)NN(C(=O)c2cc(Cl)nc(Cl)c2)C(C)(C)C)ccc2c1OCCO2 [RG-115297] | Fold Induction, Z3 Assay, 33 uM | 604 |
| CCc1c(OC)cccc1C(=O)NN(C(=O)c1c(F)cccc1F)C(C)(C)C [RG-115033] | Fold Induction, Z3 Assay, 33 uM | 388 |
| CCc1c(C(=O)NN(C(=O)c2ccc(F)c(C(F)(F)F)c2)C(C)(C)C)ccc2c1OCCO2 [RG-115280] | Fold Induction, Z3 Assay, 33 uM | 376 |
| Cc1cc(C)cc(C(=O)N(NC(=O)c2cccc(OC(C)C)c2C)C(C)(C)C)c1 [RG-101670] | Fold Induction, Z3 Assay, 33 uM | 929 |
| CCCC(N(NC(=O)c1cccc(OC)c1C)C(=O)c1cc(C)cc(C)c1)C(C)(C)C (centres unmarked) [RG-115823] | Fold Induction, Z3 Assay, 33 uM | 1050 |
| CCc1c(C(=O)NN(C(=O)c2ccccc2)C(C)(C)C)ccc2c1OCOC2 [RG-115046] | Fold Induction, Z3 Assay, 33 uM | 754 |
| COc1ccc(OC)c(C(=O)N(NC(=O)c2cccc(C)c2C)C(C)(C)C)c1 [RG-100763] | Fold Induction, Z3 Assay, 33 uM | 151 |
| CCc1ccccc1C(=O)N(NC(=O)c1cccc(OC)c1C)C(C)(C)C [RG-101062] | Fold Induction, Z3 Assay, 33 uM | 391 |
| CCc1c(OC)cccc1C(=O)NN(C(=O)c1cc(OC)cc(OC)c1)C(C)(C)C [RG-100778] | Fold Induction, Z3 Assay, 33 uM | 365 |
| CCc1c(C(=O)NN(C(=O)c2ccccc2OC)C(C)(C)C)ccc2c1OCO2 [RG-100698] | Fold Induction, Z3 Assay, 33 uM | 591 |
| CCc1c(OC)cccc1C(=O)NN(C(=O)c1cc(C)cc(C)c1)C(C)(C)C=NCCO [RG-115511] | Fold Induction, Z3 Assay, 33 uM | 570 |
| COc1cccc(C(=O)NN(C(=O)c2cc(F)ccc2F)C(C)(C)C)c1C [RG-100603] | Fold Induction, Z3 Assay, 33 uM | 453 |
| Cc1c(C(=O)NN(C(=O)c2ccccc2[S+](C)[O-])C(C)(C)C)ccc2c1OCCO2 (centres unmarked) [RG-115064] | Fold Induction, Z3 Assay, 33 uM | 3 |
| Cc1c(C(=O)NN(C(=O)c2cc(Cl)cc(Cl)c2)C(C)(C)C)cccc1N(C)C [RG-101316] | Fold Induction, Z3 Assay, 33 uM | 350 |
